System: HCC-15
Experiment: relative viability (nuclei count vs DMSO), 5 days (fraction); higher = more cells survive
Settings: first compound 0.01581 µM
Rule for this label: rule met means relative viability is less than 0.8; rule not met means relative viability is at least 0.8.

>  <COMPOUND>
CC1(C)CCC(c2ccc(Cl)cc2)=C(CN2CCN(c3ccc(C(=O)NS(=O)(=O)c4ccc(N[C@H](CCN5CCOCC5)CSc5ccccc5)c(S(=O)(=O)C(F)(F)F)c4)cc3)CC2)C1 [Navitoclax] + COc1cccc2cc(-c3nc([C@H]4CC[C@H](C(=O)O)CC4)n4ncnc(N)c34)[nH]c12 [OSI-027] (partner 0.5 µM)

>  <CLASSIFICATION>
rule met

$$$$
>  <COMPOUND>
CC1(C)CCC(c2ccc(Cl)cc2)=C(CN2CCN(c3ccc(C(=O)NS(=O)(=O)c4ccc(N[C@H](CCN5CCOCC5)CSc5ccccc5)c(S(=O)(=O)C(F)(F)F)c4)cc3)CC2)C1 [Navitoclax] + COc1cc2c(Oc3ccc(NC(=O)C4(C(=O)Nc5ccc(F)cc5)CC4)cc3F)ccnc2cc1OCCCN1CCOCC1 [Foretinib] (partner 0.25 µM)

>  <CLASSIFICATION>
rule not met

$$$$
>  <COMPOUND>
CC1(C)CCC(c2ccc(Cl)cc2)=C(CN2CCN(c3ccc(C(=O)NS(=O)(=O)c4ccc(N[C@H](CCN5CCOCC5)CSc5ccccc5)c(S(=O)(=O)C(F)(F)F)c4)cc3)CC2)C1 [Navitoclax] + O=C(CCCCCCC(=O)Nc1ccccc1)NO [Vorinostat] (partner 1 µM)

>  <CLASSIFICATION>
rule not met

$$$$
>  <COMPOUND>
CC1(C)CCC(c2ccc(Cl)cc2)=C(CN2CCN(c3ccc(C(=O)NS(=O)(=O)c4ccc(N[C@H](CCN5CCOCC5)CSc5ccccc5)c(S(=O)(=O)C(F)(F)F)c4)cc3)CC2)C1 [Navitoclax] + Cc1nc(Nc2ncc(C(=O)Nc3c(C)cccc3Cl)s2)cc(N2CCN(CCO)CC2)n1 [Dasatinib] (partner 0.075 µM)

>  <CLASSIFICATION>
rule met

$$$$

Cited source for all entries: the supplement of paper PMC10307832
